Tested on: BDF1 mice, Adenocarcinoma 755 s.c., tumor weight T/C
Experiment: NCI In Vivo Anticancer Drug Screen. Data for tumor model Adenocarcinoma 755 (subcutaneous) in B6D2F1 (BDF1) mice
Condition: endpoint: mean tumor weight; dose: 3.1 mg/kg/injection; schedule: Q01DX011 (ip); vehicle: methylcellulose (MC); higher = larger tumour
T/C listing for selected compounds.

>  <Compound>
CC(C)Sc1nc(N)nc2nc[nH]c12

>  <T/C>
11 % of control

$$$$
>  <Compound>
CCNc1ncnc2c1cnn2C1CCCO1 (stereo unspecified)

>  <T/C>
61 % of control

$$$$
>  <Compound>
CCCCn1cnc2c(SCc3ccc(F)cc3)nc(N)nc21

>  <T/C>
59 % of control

$$$$
>  <Compound>
CCCn1cnc2c(SC(C)C)nc(N)nc21

>  <T/C>
16 % of control

$$$$
>  <Compound>
CNS(=O)(=O)c1ncnc2nc[nH]c12

>  <T/C>
77 % of control

$$$$
>  <Compound>
Nc1nc(SCc2ccc(F)cc2)c2ncn(C3OC(CO)C(O)C3O)c2n1 (stereo unspecified)

>  <T/C>
86 % of control

$$$$

----------
T/C listing for selected compounds.
Test system: BDF1 mice, Adenocarcinoma 755 s.c., tumor weight T/C
Experiment: NCI In Vivo Anticancer Drug Screen. Data for tumor model Adenocarcinoma 755 (subcutaneous) in B6D2F1 (BDF1) mice
Condition: endpoint: mean tumor weight; dose: 6.25 mg/kg/injection; schedule: Q01DX011 (ip); vehicle: methylcellulose (MC); higher = larger tumour

>  <Compound>
CC(C)Cn1cnc2c(SCc3cccc(F)c3)nc(N)nc21

>  <T/C>
75 % of control

$$$$
>  <Compound>
O=S(=O)(F)c1ncnc2nc[nH]c12

>  <T/C>
113 % of control

$$$$
>  <Compound>
CCCSc1nc(N)nc2c1ncn2C1OC(CO)C(O)C1O (configuration not stated)

>  <T/C>
4 % of control

$$$$
>  <Compound>
Nc1nc(SCc2ccccn2)c2[nH]cnc2n1

>  <T/C>
2 % of control

$$$$
>  <Compound>
CCCNc1ncnc2c1cnn2C

>  <T/C>
80 % of control

$$$$
>  <Compound>
CCCn1cnc2c(SC(C)C)nc(N)nc21

>  <T/C>
2 % of control

$$$$
>  <Compound>
CCCCn1cnc2c(SCc3ccccc3F)nc(N)nc21

>  <T/C>
81 % of control

$$$$

----------
Tested on: BDF1 mice, Adenocarcinoma 755 s.c., tumor weight T/C
Experiment: NCI In Vivo Anticancer Drug Screen. Data for tumor model Adenocarcinoma 755 (subcutaneous) in B6D2F1 (BDF1) mice
Condition: endpoint: mean tumor weight; dose: 25.0 mg/kg/injection; schedule: Q01DX011 (ip); vehicle: methylcellulose (MC); higher = larger tumour
T/C listing for selected compounds.

>  <Structure Smiles>
CNS(=O)(=O)c1ncnc2nc[nH]c12

>  <T/C>
5 % of control

$$$$
>  <Structure Smiles>
CCc1nc(N)nc(N)c1-c1ccc(Cl)cc1

>  <T/C>
62 % of control

$$$$
>  <Structure Smiles>
CC(C)n1cc2c(N)ncnc2n1

>  <T/C>
18 % of control

$$$$
>  <Structure Smiles>
Nc1nc(SCc2ccccc2)c2ncn(C3CCCCC3)c2n1

>  <T/C>
113 % of control

$$$$
>  <Structure Smiles>
O=C(CCBr)NCCCNC(=O)CCBr

>  <T/C>
54 % of control

$$$$
>  <Structure Smiles>
CS(=O)(=O)OCCCCOS(C)(=O)=O

>  <T/C>
77 % of control

$$$$
>  <Structure Smiles>
Nc1nc(SCc2ccccc2Cl)c2ncn(C3CCCCC3)c2n1

>  <T/C>
180 % of control

$$$$
